- System: OVCAR-3 ovarian
- experimental-protocol: NCI tumour cell line growth inhibition, 48 h; in the data active = GI50 below about 0.43 µM; inactive = the rest
Write down the outcome that applies. Available outcomes: YES (active), NO (inactive)

>>> category("CN(C)CCCC1(c2ccc(F)cc2)OCc2cc(-c3cccc4[nH]ccc34)ccc21 (stereo not given)")
"NO"
>>> category("COc1ccc(C(=O)c2cc(OC)c(OC)c(OC)c2OC)cc1O")
"NO"
>>> category("COC1N(C2CC(O)C(CO)O2)C(=O)NC(=O)C1(F)Br (stereo not given)")
"NO"
>>> category("CC(=O)ON1CCCC(P(=O)(OCOC(=O)C(C)(C)C)OCOC(=O)C(C)(C)C)C1=O (stereo not given)")
"NO"
>>> category("Cn1nccc1Nc1nccc(-c2ccn([C@H](CO)c3ccc(Cl)c(F)c3)c(=O)c2)n1")
"NO"

Called result for COc1ccc(OC)c(/C=C/c2nc(=S)n(-c3ccc(Cl)cc3)[nH]2)c1
NO

Called result for CCCCCCCCCCCC[N+]1(CCCCCCCCCCCC)CCCC(C)C1 (stereo not given)
YES

Called result for N#CC1(c2ccc(NC(=O)c3cccnc3NCc3ccncc3)cc2)CCCC1
NO

Called result for Cc1cccc(NC(=O)c2sc3nc4c(cc3c2N)C(=O)CCC4)c1
YES

Called result for CNC(=O)c1ncccc1Nc1nc(Nc2cc3c(cc2OC)CCCN3C(=O)CN(C)C)nc2[nH]ccc12
NO
